These entries and their values trace back to PubChem BioAssay AID2060484.

Test system: SUM149PT spheroids with HUVEC/MSC, viability
assay protocol: Anticancer human tumor SUM149PT cell line growth inhibition [GQUAD]; active = viability on the fitted dose curve at most 10% of control; inactive = the rest;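 also: spheroids exposed to drugs for seven days before readout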
assay conditions: second compound 10 µM; first compound 10 µM
Please answer using one outcome listed in Y for active, N for inactive

Tell me the recorded outcome of this test for CC(=O)O[C@H]1C(=O)[C@@]2(C)[C@H]([C@H](OC(=O)c3ccccc3)[C@]3(O)C[C@H](OC(=O)[C@H](O)[C@@H](NC(=O)c4ccccc4)c4ccccc4)C(C)=C1C3(C)C)[C@]1(OC(C)=O)CO[C@@H]1C[C@@H]2O + CN(C)c1ccc(Nc2c3ccc(NC(=O)CCN4CCCC4)cc3nc3cc(NC(=O)CCN4CCCC4)ccc23)cc1 .
N

Follow-up entry: O=C(c1cc(Cc2n[nH]c(=O)c3ccccc23)ccc1F)N1CCN(C(=O)C2CC2)CC1 + Cc1cnc(CNC(=O)c2c(=O)c3ccc(N4CCCN(C)CC4)nc3n3c2sc2ccccc23)cn1
N

Follow-up entry: CC(C)n1c(=O)n(C)c2cnc3cc(F)c(-c4ccc(OCCCN5CCCCC5)nc4)cc3c21 + Cc1cnc(CNC(=O)c2c(=O)c3ccc(N4CCCN(C)CC4)nc3n3c2sc2ccccc23)cn1
N

Follow-up entry: CC(=O)O[C@H]1C(=O)[C@@]2(C)[C@H]([C@H](OC(=O)c3ccccc3)[C@]3(O)C[C@H](OC(=O)[C@H](O)[C@@H](NC(=O)c4ccccc4)c4ccccc4)C(C)=C1C3(C)C)[C@]1(OC(C)=O)CO[C@@H]1C[C@@H]2O + Cc1[nH]c2ccc(F)cc2c1-c1nc2c3cccnc3c3ncccc3c2[nH]1
N

Follow-up entry: CC1COCCN1c1cc(-c2ccnn2C)c2ccnc(-c3ccn[nH]3)c2n1 (stereo not given) + CN(C)c1ccc(Nc2c3ccc(NC(=O)CCN4CCCC4)cc3nc3cc(NC(=O)CCN4CCCC4)ccc23)cc1
N

Follow-up entry: O=C(NO)c1cnc(N2CCN(S(=O)(=O)c3ccc4ccccc4c3)CC2)nc1 + Cc1cnc(CNC(=O)c2c(=O)c3ccc(N4CCCN(C)CC4)nc3n3c2sc2ccccc23)cn1
Y

Follow-up entry: COc1cc(C2c3cc4c(cc3C(OC3OC5COC(C)OC5C(O)C3O)C3COC(=O)C23)OCO4)cc(OC)c1O (stereo not given) + Cc1[nH]c2ccc(F)cc2c1-c1nc2c3cccnc3c3ncccc3c2[nH]1
N

Follow-up entry: O=c1[nH]cc(F)c(=O)[nH]1 + Cc1[nH]c2ccc(F)cc2c1-c1nc2c3cccnc3c3ncccc3c2[nH]1
N

Follow-up entry: CC1COCCN1c1cc(C2(O)CC3CCC(C2)O3)c2cnn(-c3ccn[nH]3)c2n1 (stereo not given) + Cc1[nH]c2ccc(F)cc2c1-c1nc2c3cccnc3c3ncccc3c2[nH]1
N

Follow-up entry: Cc1cccc(N(C)C(=O)C2C(O)CCN2c2nc(C)cc(C(F)(F)F)c2C#N)c1 (stereo not given) + Cc1cnc(CNC(=O)c2c(=O)c3ccc(N4CCCN(C)CC4)nc3n3c2sc2ccccc23)cn1
N

Follow-up entry: CC1COCCN1c1cc(C2(S(C)(=N)=O)CC2)nc(-c2ccnc3[nH]ccc23)n1 (stereo not given) + Cc1[nH]c2ccc(F)cc2c1-c1nc2c3cccnc3c3ncccc3c2[nH]1
N

Follow-up entry: C=CC(=O)N1CCN(c2nc(=O)n(-c3c(C)ccnc3C(C)C)c3nc(-c4c(O)cccc4F)c(F)cc23)C(C)C1 (stereo not given) + Cc1[nH]c2ccc(F)cc2c1-c1nc2c3cccnc3c3ncccc3c2[nH]1
N

Follow-up entry: COc1ncnc(C2CC2)c1-c1ncc2cnn(Cc3ccc(-c4nc(C(F)(F)F)cn4C(C)C)cc3)c2n1 + CN(C)c1ccc(Nc2c3ccc(NC(=O)CCN4CCCC4)cc3nc3cc(NC(=O)CCN4CCCC4)ccc23)cc1
N

Follow-up entry: CC(C)n1c(=O)n(C)c2cnc3cc(F)c(-c4ccc(OCCCN5CCCCC5)nc4)cc3c21 + CN(C)c1ccc(Nc2c3ccc(NC(=O)CCN4CCCC4)cc3nc3cc(NC(=O)CCN4CCCC4)ccc23)cc1
N

Follow-up entry: COc1ccc([C@@H](O)c2cc(-c3ncnc4cc(N5CCOCC5)ccc34)c(F)cc2Cl)nn1 + CN(C)c1ccc(Nc2c3ccc(NC(=O)CCN4CCCC4)cc3nc3cc(NC(=O)CCN4CCCC4)ccc23)cc1
N

Follow-up entry: CC(C)(O)C1CCC(Nc2ccc3ncc(-c4cccc(C(F)(F)F)c4)n3n2)CC1 (stereo not given) + Cc1cnc(CNC(=O)c2c(=O)c3ccc(N4CCCN(C)CC4)nc3n3c2sc2ccccc23)cn1
Y

Follow-up entry: C#Cc1c(F)ccc2cc(O)cc(-c3ncc4c(N5CC6CCC(C5)N6)nc(OCC56CCCN5CC(F)C6)nc4c3F)c12 (stereo not given) + Cc1[nH]c2ccc(F)cc2c1-c1nc2c3cccnc3c3ncccc3c2[nH]1
N

Follow-up entry: O=C(c1cc(Cc2n[nH]c(=O)c3ccccc23)ccc1F)N1CCN(C(=O)C2CC2)CC1 + CN(C)c1ccc(Nc2c3ccc(NC(=O)CCN4CCCC4)cc3nc3cc(NC(=O)CCN4CCCC4)ccc23)cc1
N

Follow-up entry: COc1ccc([C@@H](O)c2cc(-c3ncnc4cc(N5CCOCC5)ccc34)c(F)cc2Cl)nn1 + Cc1[nH]c2ccc(F)cc2c1-c1nc2c3cccnc3c3ncccc3c2[nH]1
N

Follow-up entry: C#Cc1c(F)ccc2cc(O)cc(-c3ncc4c(N5CC6CCC(C5)N6)nc(OCC56CCCN5CC(F)C6)nc4c3F)c12 (stereo not given) + Cc1cnc(CNC(=O)c2c(=O)c3ccc(N4CCCN(C)CC4)nc3n3c2sc2ccccc23)cn1
Y
